The entries below are paired with their reported selectivity ratio.
Test: Selectivity index, ratio of ED50 for human HaCaT cells to MIC for Staphylococcus aureus 3R7089 strain Oxford/ATCC 9144
Type: toxicity
Settings: read-out: Selectivity Index
Square brackets hold non-standard residues; d marks the D form. Peptide text beside a SMILES is read from it. Nspe = C[C@H](NCC(=O)O)c1ccccc1; NhArg = N=C(N)NCCCCNCC(=O)O
No unit in the answer, only the number.

CCCCCNCC(=O)N(CC(=O)N(CC(=O)N(CCCCC)CC(=O)N(CC(=O)N(CC(=O)N(CCCCN)CC(=O)N(CC(=O)N(CC(=O)N(CCCCN)CC(=O)N(CC(=O)N(CC(N)=O)[C@@H](C)c1ccccc1)[C@@H](C)c1ccccc1)C(C)c1ccccc1)[C@@H](C)c1ccccc1)C(C)c1ccccc1)[C@@H](C)c1ccccc1)C(C)c1ccccc1)[C@@H](C)c1ccccc1 (single isomer, unassigned)	10
NCCCCNCC(=O)N(CC(=O)N(CC(=O)N(CCCCN)CC(=O)N(CC(=O)N(CC(=O)N(CCCCN)CC(=O)N(CC(=O)N(CC(N)=O)Cc1cccc(F)c1)Cc1cccc(F)c1)Cc1cccc(F)c1)Cc1cccc(F)c1)Cc1cccc(F)c1)Cc1cccc(F)c1	11

Consider now this further molecule.
Task item: Look up and state reported selectivity ratio for C[C@@H](c1ccccc1)N(CC(N)=O)C(=O)CN(C(=O)CN(CCCCNC(=N)N)C(=O)CN(C(=O)CN(C(=O)CN(CCCCNC(=N)N)C(=O)CN(C(=O)CN(C(=O)CN(CCCCNC(=N)N)C(=O)CN(C(=O)CN(C(=O)CNCCCCNC(=N)N)[C@@H](C)c1ccccc1)[C@@H](C)c1ccccc1)[C@@H](C)c1ccccc1)[C@@H](C)c1ccccc1)[C@@H](C)c1ccccc1)[C@@H](C)c1ccccc1)[C@@H](C)c1ccccc1 (H-[NhArg][Nspe][Nspe][NhArg][Nspe][Nspe][NhArg][Nspe][Nspe][NhArg][Nspe][Nspe]-NH2)
Reply: 20

----------
// values below are reported selectivity ratio
Assay: Selectivity index, ratio of ED50 for human HaCaT cells to MIC for Pseudomonas aeruginosa PAO1 ATCC 15692
Assay type: toxicity
Settings: read-out: Selectivity Index
Square brackets hold non-standard residues; d marks the D form. Peptide text beside a SMILES is read from it. Gly(N-(CH2)6NH2) = NCCCCCCNCC(=O)O; Gly(N-2-aminoethyl) = NCCNCC(=O)O; Nphe = O=C(O)CNCc1ccccc1
Provide a numeric answer; units are not to be included.

Task item: Provide measured selectivity ratio value, entry: NCCNCC(=O)N(CC(=O)N(CC(=O)N(CCN)CC(=O)N(CC(=O)N(CC(=O)N(CCN)CC(=O)N(CC(=O)N(CC(N)=O)Cc1ccccc1)Cc1ccccc1)Cc1ccccc1)Cc1ccccc1)Cc1ccccc1)Cc1ccccc1 (H-[Gly(N-2-aminoethyl)][Nphe][Nphe][Gly(N-2-aminoethyl)][Nphe][Nphe][Gly(N-2-aminoethyl)][Nphe][Nphe]-NH2)
Reply: 1

Task item: Give me measured selectivity ratio, please, for this compound: NCCCCCCNCC(=O)N(CC(=O)N(CC(=O)N(CCCCCCN)CC(=O)N(CC(=O)N(CC(=O)N(CCCCCCN)CC(=O)N(CC(=O)N(CC(N)=O)Cc1ccccc1)Cc1ccccc1)Cc1ccccc1)Cc1ccccc1)Cc1ccccc1)Cc1ccccc1 (H-[Gly(N-(CH2)6NH2)][Nphe][Nphe][Gly(N-(CH2)6NH2)][Nphe][Nphe][Gly(N-(CH2)6NH2)][Nphe][Nphe]-NH2)
Reply: 1

Task item: Identify selectivity ratio associated with the compound NCCNCC(=O)N(CC(=O)N(CC(=O)N(CCN)CC(=O)N(CC(=O)N(CC(N)=O)Cc1ccccc1)Cc1ccccc1)Cc1ccccc1)Cc1ccccc1 (H-[Gly(N-2-aminoethyl)][Nphe][Nphe][Gly(N-2-aminoethyl)][Nphe][Nphe]-NH2)
Reply: 1
